Assign hGIPR cAMP EC50 ratio to each entry below.
# target_of_assay: T1, human gastric inhibitory peptide receptor (GIPR) (human, UniProt P48546 22-466); note: reference of the scale not given here
# T1 sequence (looked up): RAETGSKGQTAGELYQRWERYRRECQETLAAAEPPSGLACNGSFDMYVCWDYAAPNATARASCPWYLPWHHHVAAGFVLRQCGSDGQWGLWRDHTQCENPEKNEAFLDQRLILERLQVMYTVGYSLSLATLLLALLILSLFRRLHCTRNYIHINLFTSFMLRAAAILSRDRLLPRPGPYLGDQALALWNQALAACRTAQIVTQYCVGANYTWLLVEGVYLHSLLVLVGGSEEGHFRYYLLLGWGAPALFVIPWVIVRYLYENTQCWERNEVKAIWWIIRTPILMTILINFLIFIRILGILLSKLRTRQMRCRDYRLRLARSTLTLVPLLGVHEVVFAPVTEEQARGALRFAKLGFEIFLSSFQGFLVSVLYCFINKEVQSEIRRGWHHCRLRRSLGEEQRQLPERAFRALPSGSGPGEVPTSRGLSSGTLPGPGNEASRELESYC
# test_name: cell-based or functional assay
Give bare numbers, in ratio.

Past entries and their recorded results:
INSERT INTO assay_data (binder, readout_unit, observed_value) VALUES
  ('XXEGTFTSDYSIXLDKKAQXEFIEXLIAGGPSSGAPPPS (D-Tyr1; Aib2; αMeL13; K17 conjugated to (2-[2-(2-Amino-ethoxy)-ethoxy]-acetyl)-(γ-Glu)-CO-(CH2)18-CO2H; Aib20; αMeY25; C-terminal amide) [Example 372]', 'ratio', 0.68),
  ('XXEGTFTSDYSIXLDKKAQXAFVXYLIAGGPSSGAPPPS (D-Tyr1; Aib2; αMeL13; K17 conjugated to (2-[2-(2-Amino-ethoxy)-ethoxy]-acetyl)2-(γ-Glu)-CO-(CH2)18-CO2H; Aib20; D-Glu24; C-terminal amide) [Example 361]', 'ratio', 0.261);

// below: hGIPR cAMP EC50 ratio requested for another binder
[in] Requested field: hGIPR cAMP EC50 ratio. Item: XXEGTFTSDYSIXLDXKAQXEFIEYLIAGGPSSGAPPPS (D-Tyr1; Aib2; αMeL13; Orn16; K17 conjugated to (2-[2-(2-Amino-ethoxy)-ethoxy]-acetyl)-(γ-Glu)-CO-(CH2)18-CO2H; Aib20; C-terminal amide) [Example 371]
[out] 0.393
